The values you see were collected from PubChem BioAssay.

test.details: reduction of polyQ htt aggregates in cells – imaging, exon1htt(103Q)mCFP cells, high-content imaging, primary screen (AID 483);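 further: compound exposure lasted 3 days before fixation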
conditions.used: exon1htt(103Q)mCFP cell line, aggregate imaging, at 2 µM; stronger effect = higher value
List of inhibition of aggregation values.

{"columns": ["molecule", "inhibition of aggregation [%]"],
 "data": [
  ["Cc1nnc(N(C)C(=O)c2cccnc2)s1", 8.5],
  ["CCOC(=O)c1[nH]c(C)c(C(=O)N(C)C)c1C", 14.5],
  ["COc1ccc2c(c1)CCc1c(C(=O)NCc3cccnc3)noc1-2", -6.5],
  ["CC1Cc2ccccc2N1C(=O)COC(=O)Cn1nnc(-c2ccccc2)n1 (stereo unspecified)", -4.6],
  ["CCn1c(SCc2cc(=O)[nH]c3ccccc23)nc2c1c(=O)n(C)c(=O)n2C", -9.3],
  ["O=C(Cc1nc2ccccc2s1)c1ccc(O)cc1O", -15.5],
  ["Cc1cc2cc(CNC(=O)c3ccc4c(c3)OCO4)ccc2[nH]1", 0.1],
  ["CCCS(=O)(=O)N1CCC(C(=O)N2CCCC2)CC1", -6.5],
  ["COc1cc(OC)c(C(=O)Nc2ncn[nH]2)cc1OC", -12],
  ["COC(=O)c1ccccc1S(=O)(=O)N(CCCO)Cc1cc2c(C)ccc(C)c2[nH]c1=O", -9],
  ["O=C1CCCCCC1C1(O)C(=O)Nc2ccccc21 (stereo unspecified)", -6],
  ["CCOc1ccc2nc(N3CCC(C(=O)N4CCN(C5CCCCC5)CC4)CC3)sc2c1", -15.4],
  ["COc1ccc(S(=O)(=O)N(C)c2ccc(C(=O)N3CCOCC3)cc2)cc1", -6.7],
  ["COc1cccc(CC(=O)Nn2c(C)nc3ccccc3c2=O)c1", -8.2],
  ["CC(C)C(c1nnnn1C1CCCC1)N1CCN(C(=O)c2ccco2)CC1 (stereo unspecified)", -33.8],
  ["O=C(Nc1ccc(N2CCCC2)cc1)c1ccc(Br)o1", 36.8],
  ["CCN(c1ccc(OC)cc1)S(=O)(=O)c1ccc2c(c1)CCN2C(=O)CCC(=O)O", -38.2],
  ["O=C(O)CCCC(=O)NCCc1ccncc1", -3.6],
  ["CCOC(=O)c1c(C)oc2ccc(OCC(N)=O)cc12", -6.7],
  ["COc1ccc(-n2c(=O)cc(N3CCN(Cc4ccccc4)CC3)[nH]c2=O)cc1", -0.4],
  ["COc1ccc2c(C(F)(F)F)cc(=O)oc2c1C", 0.8],
  ["Cc1ccc(Cl)cc1N1CCN(C(=O)c2cn(C)c(=O)c3c2c2ccccc2n3C)CC1", 17.2],
  ["CCOC(=O)C1CCN(S(=O)(=O)c2cc(Cl)c(C)cc2OC)CC1", -0.9],
  ["O=c1c2ccccc2nc(SCc2cn3ccsc3n2)n1-c1ccc(F)cc1", 9],
  ["CNC(=O)NCCN1CCCC1=O", -26.4],
  ["O=C(C1=C(O)C(=O)N(Cc2ccccc2)C1c1ccncc1)c1ccco1 (stereo unspecified)", -3.4],
  ["COCCNC(=O)C(c1cccs1)N(C(=O)Cn1nnc2ccccc21)c1ccccc1 (stereo unspecified)", 0.7],
  ["COC(=O)C1=C(C)Nc2ncnn2C1c1ccco1 (stereo unspecified)", -6.6],
  ["COc1ccc(-c2cc(C(=O)N3CCN(Cc4ccccc4)CC3)no2)cc1OC", -5.8],
  ["CC(=O)Nc1sc2c(c1C#N)CCCCC2", 12.1],
  ["CCC1CCCCN1S(=O)(=O)c1ccc(C(=O)Nc2nnc(-c3ccccc3Cl)o2)cc1 (stereo unspecified)", -1.5],
  ["COc1ccc(CCN2C(=O)CCC2(C)C(=O)NCc2cccnc2)cc1OC (stereo unspecified)", 5.2],
  ["CCn1c(SCC(N)=O)nnc1-c1ccc(S(=O)(=O)N2CCN(C)CC2)cc1", -23.3],
  ["Cc1ccccc1Cn1c(=O)c2c(nc3n2CCCN3Cc2ccccc2)n(C)c1=O", 7.4],
  ["COc1cccc(NC(=O)N2CCCC2C(=O)Nc2ccc3c(c2)OCO3)c1 (stereo unspecified)", -11.8],
  ["CCOC(=O)CSc1nn(C)c(=S)s1", -4.4],
  ["COCC(=O)N(Cc1ccc(OC)cc1)Cc1nc2ccccc2c(=O)[nH]1", -0.1],
  ["Cc1ccc(-c2[nH]nc3c2C(c2ccoc2)C(C#N)=C(N)O3)cc1C (stereo unspecified)", 7.7],
  ["CCCc1[nH]nc2c1C(c1cn[nH]c1-c1ccc(F)cc1)C(C#N)=C(N)O2 (stereo unspecified)", 11.7],
  ["CC1(C)NC(=O)N(CC(O)COc2ccc(-c3ccccc3)cc2)C1=O (stereo unspecified)", 4.5],
  ["Cc1ccc(S(=O)(=O)N(CC(=O)N2CCC(C(N)=O)CC2)Cc2ccc(F)cc2)cc1", -8.5],
  ["COc1cc(C(=O)OCc2cc3ccccc3[nH]c2=O)cc(OC)c1OC", -3.9],
  ["COC(=O)CCC(=O)Nc1ccc(OC)cc1", -15.3],
  ["COC(=O)Cc1csc(N)n1", 15],
  ["O=S(=O)(c1ccc(Br)s1)N1CCCCC1", -18.8],
  ["O=C(NC1CCCCC1NC(=O)c1ccco1)c1ccco1 (stereo unspecified)", -7.6]
]}
